Compiled notes: published Ki values involving 5-hydroxytryptamine receptor 1A (Homo sapiens).
A number alone suffices; assume nM.

-- ask Item under review: OC(CNCC1COc2ccccc2O1)COc1ccccc1F (stereo not given) . Reported Ki?
-- reply 8

-- ask Same question for Cc1cc2c(OC[C@@H](O)CN3CC[C@@H](c4ccc5ccoc5c4)C[C@@H]3C)cccc2[nH]1 please.
-- reply 1.05

-- ask Try this compound too: CN1CCN(Cc2ccc(OCCCCN3CCC(c4noc5cc(F)ccc45)CC3)cc2)CC1
-- reply 12.4

-- ask // query: COc1ccccc1N1CCN(CCNc2c(C(C)=O)c(-c3ccccc3)nn(C)c2=O)CC1
-- reply 2.47

-- ask // next record CN(C)Cc1ccc(CNC(=O)CCCCCN2CCN(c3ccccc3-c3ccccc3)CC2)cc1
-- reply 74

-- ask Here is the next compound: CN1CCc2ccc3c4c2[C@H]1Cc1cccc(c1-4)[C@]3(C)O
-- reply 61.5

-- ask Try COc1cccc(CCc2ccccc2OCCCCN2CCN(c3ccccc3OC)CC2)c1 next.
-- reply 1090

-- ask Next: O=C(CCN1CCN(c2ccc(Cl)cc2)CC1)c1cccs1
-- reply 5010

-- ask Another compound: O=C1NCCc2ccc3c(c21)CC(N(CCCc1c[nH]c2ccc(F)cc12)CC1CC1)CO3 (racemic)
-- reply 19

-- ask Moving on to O=c1[nH]c2[nH]c(-c3ccccc3Cl)cc2c(=O)n1CCN1CCN(c2ccccc2Cl)CC1
-- reply 64.9

----------
Molecular target: 5-hydroxytryptamine receptor 1A (Homo sapiens)
Sequence (P08908 whole entry): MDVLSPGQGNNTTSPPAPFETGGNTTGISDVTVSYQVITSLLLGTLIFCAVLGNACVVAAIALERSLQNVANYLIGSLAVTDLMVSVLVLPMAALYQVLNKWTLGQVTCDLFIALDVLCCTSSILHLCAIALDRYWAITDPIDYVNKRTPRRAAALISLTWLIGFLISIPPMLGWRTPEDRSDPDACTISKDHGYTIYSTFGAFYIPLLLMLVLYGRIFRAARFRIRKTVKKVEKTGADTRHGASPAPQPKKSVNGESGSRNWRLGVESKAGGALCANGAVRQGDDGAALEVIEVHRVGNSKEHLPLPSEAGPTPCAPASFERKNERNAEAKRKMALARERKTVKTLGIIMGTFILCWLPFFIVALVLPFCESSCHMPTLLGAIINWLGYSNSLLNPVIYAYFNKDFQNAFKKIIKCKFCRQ
Listed below are compounds with Ki for 5-hydroxytryptamine receptor 1A (Homo sapiens), each taken from published literature.
Please use true (1) for Ki under 30 nM and false (0) for everything else, ties included.

-- ask Is the reported Ki for CCOc1ccccc1N1CCN(CC(O)CN2C(=O)NC(C)(c3ccc(F)cc3)C2=O)CC1 (stereo not given) strictly below 30 nM?
-- reply false (0)

-- ask Now consider CN(C)CC1=Cc2cn(S(=O)(=O)c3ccccc3)c3cccc(c23)O1 and answer again.
-- reply false (0)

-- ask Then O=C(NCCCCN1CCN(c2ccc(F)cc2)CC1)c1cc2ccccc2cn1 ?
-- reply false (0)

-- ask Lookup O=S(=O)(NCC1CCN(CCOc2cccc(F)c2)CC1)c1ccc(F)cc1
-- reply false (0)

-- ask And for COc1cc(Cl)ccc1N1CCN(CCC(O)c2csc3ccccc23)CC1 (stereo not given) ?
-- reply false (0)

-- ask Continue with COc1ccccc1-c1cc2c(=O)n(CCN3CCN(c4ccccc4OC)CC3)c(=O)[nH]c2[nH]1
-- reply false (0)

-- ask Note, next up: O=S(=O)(NC1CCN(CCOc2cccc(F)c2)C1)c1cccs1 (stereo not given)
-- reply false (0)

-- ask Repeat for the following compound: Cc1ccc2c(OCCN3CCN(Cc4ccc(Cl)c([N+](=O)[O-])c4)CC3)cccc2n1
-- reply false (0)

-- ask Okay, and O=c1[nH]c2cccc(N3CCN(Cc4cnc5ccccc5n4)CC3)c2[nH]1 ?
-- reply false (0)

-- ask Now consider O[C@H](COc1cccc2[nH]ccc12)CN1CC[C@@H](c2ccc(F)cc2)[C@H](COc2ccc3c(c2)OCO3)C1 .
-- reply true (1)

-- ask Could you do the same for Fc1ccccc1Oc1cccc(F)c1OC1CNC1 , please?
-- reply true (1)

-- ask Cool, now CC(Oc1cccc(F)c1F)c1nc(N)nc(N2CCN(C)CC2)n1 (stereo not given)
-- reply false (0)

-- ask Next up: CCNC(=O)c1cccc(NC2=NC(N)=NC3(CCCCC3)N2)c1
-- reply false (0)

-- ask Try this compound next: Fc1ccccc1Oc1ccccc1OC1CNC1
-- reply true (1)

-- ask Do the same for COc1ccccc1N1CCC2(CCN(CCCSc3nnc(-c4ccccc4)n3C)CC2)C1 please
-- reply false (0)

-- ask Queued: Fc1cccc2c1nc(OCC1CCN(CCC(F)(F)F)CC1)c1cccnc12
-- reply false (0)

-- ask Cool, now Cc1ccc2c(OCCN3CCN(Cc4ccc(Cl)c(Cl)c4)CC3)cccc2n1
-- reply false (0)

-- ask Please give the result for C[C@H]1c2c([nH]c3ccc(C(F)(F)F)cc23)C[C@H]2CCN(CCC3(C(=O)O)CCCCC3)C[C@@H]21 too.
-- reply false (0)

-- ask Item: O=S(=O)(NC1CCN(CCOc2cccc(F)c2)C1)c1ccc(F)c(F)c1 (stereo not given)
-- reply false (0)

-- ask Moving on to COc1cccc2sc([C@H]3CCN(C[C@H](O)COc4cccc5[nH]c(C(N)=O)cc45)[C@H](C)C3)cc12
-- reply false (0)

-- ask Consider next the compound COc1ccccc1N1CCN(CC/C(=N\O)c2ccsc2)CC1 in the same way.
-- reply true (1)

-- ask Okay, and O=C(/C=C/c1ccc(Cl)c(Cl)c1)NCCCCCN1CCC(c2c[nH]c3ccc(O)cc23)CC1 ?
-- reply false (0)

-- ask Same question for Cc1ccc2c(OCCN3CCC(Cc4ccc5c(c4)NC(=O)CO5)CC3)ccc(Cl)c2n1 please.
-- reply false (0)

-- ask How about this compound: Cc1ccc2c(N3CCN(CCc4ccc5c(c4F)NC(=O)CO5)CC3)cccc2n1
-- reply true (1)

-- ask Another compound to look at: N#Cc1ccc2[nH]cc([C@H]3CC[C@H](N4CCN(c5cccc6ncccc56)CC4)CC3)c2c1
-- reply true (1)

-- ask Now the compound CCN(CC)CC1=Cc2cn(S(=O)(=O)c3ccccc3)c3cccc(c23)O1
-- reply false (0)

-- ask Again, but for COc1ccccc1OCCNC[C@@H]1CO[C@@H](c2ccccc2)CO1 (relative stereo)
-- reply false (0)

-- ask Fc1cccc(Oc2ccccc2Cl)c1OC1CNC1 ?
-- reply true (1)

-- ask Now the compound CNc1ccccc1N1CCN(CCCCn2ncc(=O)n(C)c2=O)CC1
-- reply false (0)

-- ask Let us now turn to COc1ccccc1N1CCN(CCCCNC(=O)[C@@H]2CCC(=O)N2C(=O)C2CCCCC2)CC1
-- reply true (1)

-- ask Could you do the same for COc1ccccc1N1CCN(Cc2ccc(C(=O)N3CCC[C@H]3C(N)=O)cc2)CC1 , please?
-- reply false (0)

-- ask Quick one: COc1ccccc1N1CCN(CCCSc2nnc(-c3ccccc3)n2C)CC1
-- reply true (1)

-- ask Next compound: Cn1c(=O)cnn(CCCCN2CCN(c3ncccc3F)CC2)c1=O
-- reply true (1)

-- ask For COc1cc2c(cc1N1CCN(C)CC1)N(C(=O)c1ccc(-c3cccc(C)n3)c3ccccc13)CC2 then?
-- reply true (1)

-- ask Now the same for Cn1cc(S(=O)(=O)NC2CCN(CCOc3ccccc3C(C)(C)C)CC2)cn1
-- reply false (0)

-- ask Request: COc1ccc(Cl)cc1N1CCN(CCCNc2c(C(C)=O)c(C)nn(C)c2=O)CC1
-- reply true (1)

-- ask Entry to check: O=S(=O)(c1cncc2ccccc12)N1CCC(CCN2CCN(c3cccc(Cl)c3)CC2)CC1
-- reply false (0)

-- ask Now give it for O=C1CC2(CCCC2)CC(=O)N1CCN1CCN(c2c(Cl)cccc2Cl)CC1 too.
-- reply false (0)

-- ask Follow-up entry: COc1cccc2sc(C3CCN(C[C@H](O)COc4cccc5[nH]c(C)cc45)C(C)(C)C3)cc12 (stereo in doubt; 29)
-- reply false (0)

-- ask Follow-up entry: c1cc(N2CCN(Cc3cnc4ccccc4n3)CC2)c2[nH]ncc2c1
-- reply false (0)

----------
Molecular target: 5-hydroxytryptamine receptor 1A (Homo sapiens, UniProt P08908)
Sequence (P08908 whole entry): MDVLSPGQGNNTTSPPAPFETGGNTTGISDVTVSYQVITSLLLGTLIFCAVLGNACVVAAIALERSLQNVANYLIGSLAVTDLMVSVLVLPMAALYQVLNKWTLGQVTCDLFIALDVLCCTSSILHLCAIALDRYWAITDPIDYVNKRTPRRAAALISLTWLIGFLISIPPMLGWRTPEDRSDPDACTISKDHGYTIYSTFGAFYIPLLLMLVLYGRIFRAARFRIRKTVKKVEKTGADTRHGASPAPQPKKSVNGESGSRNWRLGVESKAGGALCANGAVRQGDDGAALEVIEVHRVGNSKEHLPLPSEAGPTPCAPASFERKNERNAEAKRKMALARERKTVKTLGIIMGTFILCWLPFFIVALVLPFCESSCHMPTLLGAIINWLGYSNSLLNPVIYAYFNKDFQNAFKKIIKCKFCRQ
Compiled from multiple publications: log10 Ki readings for 5-hydroxytryptamine receptor 1A (Homo sapiens, UniProt P08908).
Field: value | Transform: log10 | Quantity: Ki | Unit: nM

-- ask Which log10 Ki reading was recorded for the molecule Cc1ccc2c(OCCCN3CC(COc4ccc5c(c4)NC(=O)CO5)C3)cccc2n1 ?
-- reply 1.90

-- ask Now this one: CCc1c(C(=O)N2CCc3cc4ccnc(N5CCNCC5)c4cc32)cnn1-c1ccc(C#N)cc1
-- reply 0.10

-- ask Would you kindly repeat that for CC(C)CN1CC(CNCCc2c[nH]c3ccc(F)cc23)Oc2ccccc21 (stereo not given) ?
-- reply 0.91

-- ask # repeat for O=c1ccc2ccc(OCCCCN3CCN(c4cccc(Cl)c4Cl)CC3)nc2[nH]1
-- reply 1.15

-- ask Let us now turn to O=c1[nH]c2cccc(N3CCN(Cc4cc(-c5ccccc5)ccc4F)CC3)c2o1
-- reply 1.61

-- ask Follow-up item: CC(C)c1ccccc1OCCN1CCC(NC(=O)Nc2cccc(Cl)c2)CC1
-- reply 2.77

-- ask Would you mind doing COc1cccc(N2CCN(CCCOc3c(C(C)=O)c(C)cc4oc(=O)cc(C)c34)CC2)c1 as well?
-- reply -0.40

-- ask Thanks! And COc1ccccc1C(=O)Nc1ccc2[nH]cc(C3CCN(C)CC3)c2n1 ?
-- reply 1.30

-- ask Can you handle COc1ccc(-c2cc(F)ccc2N2CCN(CCCCCC(=O)NCc3ccc(C#N)cc3)CC2)cc1 next?
-- reply 2.89

-- ask Quick one: O=C1c2cccc3cccc(c23)N1CCCCCCN1CCN(c2ccc(Cl)c(Cl)c2)CC1
-- reply 2.21
